// percentage damage caused to the plant, five point scale, ABUTH lookup, one value per entry
System: Abutilon theophrasti (ABUTH)
measurement-protocol: B6 Pre-Emergence Efficacy—Test 3
Assay type: in vivo
measurement-conditions: pre-emergence application, 250 g/ha, evaluated after 13 days (Test 3)
readout-label: percentage damage caused to the plant, five point scale, ABUTH

[
  {
    "molecule": "CSCc1ccc(CCc2c(Cl)ccc(F)c2-c2c(O)c(C)nn(C)c2=O)cc1 [Compound A-1.388]",
    "target-system": "Abutilon theophrasti (ABUTH)",
    "result": "5 (5=80-100%)"
  },
  {
    "molecule": "Cc1nn(C)c(=O)c(-c2c(F)ccc(Cl)c2CCc2ccc(C3CCC(C)O3)cc2)c1O (centres unmarked) [Compound A-1.380]",
    "target-system": "Abutilon theophrasti (ABUTH)",
    "result": "4 (4=60-79%)"
  },
  {
    "molecule": "Cc1nn(C)c(=O)c(-c2c(F)ccc(C3CC3)c2CCc2ccnc(F)c2)c1O [Compound C-1.013]",
    "target-system": "Abutilon theophrasti (ABUTH)",
    "result": "5 (5=80-100%)"
  },
  {
    "molecule": "Cc1ccc(-c2ccc(CCc3c(Cl)ccc(F)c3-c3c(O)c(C)nn(C)c3=O)cc2)o1 [Compound A-1.381]",
    "target-system": "Abutilon theophrasti (ABUTH)",
    "result": "1 (1=0-19%)"
  },
  {
    "molecule": "Cc1nn(C)c(=O)c(-c2c(F)ccc(Cl)c2CCc2ccc(C(N)=O)cc2)c1O [Compound A-1.392]",
    "target-system": "Abutilon theophrasti (ABUTH)",
    "result": "5 (5=80-100%)"
  },
  {
    "molecule": "CNS(=O)(=O)c1ccc(CCc2c(Cl)ccc(F)c2-c2c(O)c(C)nn(C)c2=O)cc1 [Compound A-1.390]",
    "target-system": "Abutilon theophrasti (ABUTH)",
    "result": "5 (5=80-100%)"
  },
  {
    "molecule": "Cc1nn(C)c(=O)c(-c2c(F)ccc(Cl)c2CCc2ccc(-c3ncco3)cc2)c1O [Compound A-1.382]",
    "target-system": "Abutilon theophrasti (ABUTH)",
    "result": "4 (4=60-79%)"
  },
  {
    "molecule": "Cc1nn(C)c(=O)c(-c2c(F)ccc(Cl)c2CCc2cnn(C3CC3)c2)c1O [Compound A-1.387]",
    "target-system": "Abutilon theophrasti (ABUTH)",
    "result": "4 (4=60-79%)"
  },
  {
    "molecule": "Cc1nn(C)c(=O)c(-c2c(F)ccc(Cl)c2CCc2ccc(S(N)(=O)=O)cc2)c1O [Compound A-1.391]",
    "target-system": "Abutilon theophrasti (ABUTH)",
    "result": "2 (2=20-39%)"
  },
  {
    "molecule": "Cc1nn(C)c(=O)c(-c2c(F)ccc(Cl)c2CCc2ccc(CSC(C)C)cc2)c1O [Compound A-1.389]",
    "target-system": "Abutilon theophrasti (ABUTH)",
    "result": "3 (3=40-59%)"
  },
  {
    "molecule": "Cc1nn(C)c(=O)c(-c2c(F)ccc(Cl)c2CCc2cnn(-c3ccccc3)c2)c1O [Compound A-1.386]",
    "target-system": "Abutilon theophrasti (ABUTH)",
    "result": "2 (2=20-39%)"
  }
]

Data provenance is patent US12540120B2.
